# System: MS2 coat protein
# PROCEDURE_TEXT: apparent KD of MS2 coat protein; designed switch direction (-1 OFF switch, 1 ON switch): -1; higher = weaker reporter binding
# PARTICULARS: input ligand: none
Each entry below lists one item and its recorded apparent KD of MS2 coat protein value.

INPUT_SEQUENCE	apparent KD of MS2 coat protein / µM
AGCUGUGGCCGAGGAUAUCCAGCCUUAAAUACCGACGUAUAGUCGGACAUGAGGAUCACCCAUGUGGAGAAGGUGGUCUCAGCA [Eli eng2 - 041] (Eterna round: R96, puzzle: Exclusion NG 2)	0.0427
GAGUGCUGAGGAUAUACAUGAGGAUCACCCAUGUGCUUCAGCUAGGAGACUAGCAUUGGUAGAAGGUAGUACUC [Mod of lroppy 4 - Jieux - Exclusion 3] (Eterna round: R97, puzzle: Exclusion 3)	0.0132
AUAAUGUAAGGAUAUCAGUCGUACAGCUUCGGCUGUACGACUGAGAAGGUACAUGAGGAUCACCCAUGUGGUCA [E4/9-A1] (Eterna round: R97, puzzle: Exclusion 4)	0.886
UGCGAGUAAGGAUAUUCGCGACCGCCCACAAAGGCGGUCGAGAAGAAGGUACUUGAGGAUCACCCAAGUCCUAA [Anremaqu] (Eterna round: R97, puzzle: Exclusion 4)	0.022
AGGGCACAUGAGGAUCACCCAUGUGAGGAUAUCCCGGUACUAUCGAUGUAGUAAUCGUGGAGAAGGCACACGAC [EX1 C.21] (Eterna round: R97, puzzle: Exclusion 1)	0.0626
